The values you see were collected from patent US20210253725A1.

# studySystem: T1, CD134 expressed on the cell surface of HT1080_OX40 cells (human, UniProt P43489 29-277); note: test concentration or dose not given here
# T1 sequence (looked up): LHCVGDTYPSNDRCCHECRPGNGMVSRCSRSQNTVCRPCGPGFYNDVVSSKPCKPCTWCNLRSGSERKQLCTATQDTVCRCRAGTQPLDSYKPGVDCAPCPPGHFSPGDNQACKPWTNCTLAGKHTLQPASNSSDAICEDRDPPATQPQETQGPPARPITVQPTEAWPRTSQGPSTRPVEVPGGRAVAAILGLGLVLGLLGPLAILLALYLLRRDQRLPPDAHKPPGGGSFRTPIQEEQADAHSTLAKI
# testDetails: cell-based or functional assay
experimentalEndpoint: Functional assay Cross-linked by F(ab′)2 fragment IL-8 (abs. corr.)
Numbers only here, please. The scale is abs. corr..

Q: Endpoint output: Functional assay Cross-linked by F(ab′)2 fragment IL-8 of P018.S.11.A.G04 (antibody, V domains shown, V regions on human Ig constant parts; also called AB134_44) VH: QSVEESGGRLVTPGTPLTLTCTASGFDLSSYYMSWVRQAPGKGLEWIGIIYTDSSASYASWAKGRFTISRTSTTVDLKMTSPTTEDTATYFCARGLVVSTDNYNLWGPGTLVTVSS VL: AAVLTQTPSPVSVAVGGTVTINCQASQSIYNNNYLAWFQQKPGQPPKLLIYYTSTLASGVPSRFKGSGSGTQFTLTINGVQSDDAATYYCLGDVGGGMRVFGGGTEVVVK . Value?
A: 1.75
